# Experimental Target: Bcl-xL, Q07817
# Sequence (Q07817 1-209): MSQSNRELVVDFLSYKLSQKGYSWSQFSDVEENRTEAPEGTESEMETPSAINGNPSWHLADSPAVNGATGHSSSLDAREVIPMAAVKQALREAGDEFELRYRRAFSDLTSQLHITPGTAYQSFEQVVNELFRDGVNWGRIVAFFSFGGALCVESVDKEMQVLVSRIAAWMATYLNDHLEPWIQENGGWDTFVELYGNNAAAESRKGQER
# Protocol Text: peptide SPOT array, c-Myc-tagged receptor at 1 uM or 100 nM, anti-c-Myc-Cy3
Measurement Label: SPOT signal as a fraction of Bim BH3's signal on the same receptor and array

# example entries with known answers
LNAVNYISTVLADWLDNVFFLQLQQA [RINT1]; 0.02
RKDAELLCWDLRQSLYPLWSLGREVT [WRAP53]; 0.09
QASREAGAAALRNVLQRLFENYQTQS [CCDC68]; 0.28
GLTWDPVGKYIASQADDRSLKVWRTL [HIRA]; 0.81

I = CALLGSTGERICLALDSAGGNLCFTV [LIPE]
II = DISALTASNLLKKYLEKYSGILEGPV [FIGN]
III = TAGLRPGARLLRVCGQTLPSLRPEAA [SIPA1]
IV = CSTNNPSQAKLRRELDESLQVAERLT [CLU]
Ranking field: SPOT signal as a fraction of Bim BH3's signal on the same receptor and array; order: falling. Arrange the labels as the request states and list them.
III, II, IV, I

A = PFDCRDYAVVLRKYLDKIYNISMKHP
B = SRELEEISERLEEAGGATSVQIEMNK [MYH6]
Of the pair A and B , name the member with the lesser recorded SPOT signal as a fraction of Bim BH3's signal on the same receptor and array. // output: label of the selected item
B
(B: 0.02, A: 0.51)

A = DISLSNSGFKLVNFLCDYHQYRDKFS [PION]
B = PFDCRDYAVVDRKYADKIYNISMKHP
C = TAAAAYRGAHLRGRGRTVYNTFRAAA [XXXX]
Ascending by SPOT signal as a fraction of Bim BH3's signal on the same receptor and array, please. Arrange the labels as the request states and list them.
A, B, C
